The reader will find reported IC50 values listed item by item below.
- System: Rat2 fibroblasts stably transformed with v-Src/Hu c-Src fusion gene
- test.description: Anchorage Independent Src-transformed Fibroblast Proliferation Assay
- Type: cell-based
- protocol.conditions: Rattus norvegicus, src dependent suspension growth, MTS, read-out: Src cells IC50
State the result as a value with its unit after it.

Worked examples, 3 molecules total:
CCOc1cc2c(Nc3cc(OC)c(Cl)cc3Cl)c(C#N)cnc2cc1OCCCN1CCN(CC)CC1 = 160 nM
CCN1CCN(CCCOc2cc3ncc(C#N)c(Nc4cc(OC)c(Cl)cc4Cl)c3cc2OC)CC1 = 130 nM
CCOc1cc2c(Nc3cc(OC)c(Cl)cc3Cl)c(C#N)cnc2cc1OCCCN1CCN(C)CC1 = 86 nM

# next molecule below
Which IC50 reading was recorded for the molecule CCN1CCC(COc2cc3ncc(C#N)c(Nc4cc(OC)c(Cl)cc4Cl)c3cc2OC)CC1 ?
170 nM
